biological target: MLE dsRBD1+2 K4E (Drosophila, UniProt P24785 1-264, K4E); assay: fluorescence polarization; FP: 80 nM 3'-FAM RNA stock mixed 1:1 with protein, buffer D (composition not in material), 15 min, 20 C; EMSA: 1200 nM RNA stock mixed 1:1 with protein, buffer; conditions: protein: recombinant; tags: SUMO tag removed by ULP1; label: 3'-FAM; hairpin, 13 nt loop (C135-C147)
Sequence (P24785 1-264 K4E): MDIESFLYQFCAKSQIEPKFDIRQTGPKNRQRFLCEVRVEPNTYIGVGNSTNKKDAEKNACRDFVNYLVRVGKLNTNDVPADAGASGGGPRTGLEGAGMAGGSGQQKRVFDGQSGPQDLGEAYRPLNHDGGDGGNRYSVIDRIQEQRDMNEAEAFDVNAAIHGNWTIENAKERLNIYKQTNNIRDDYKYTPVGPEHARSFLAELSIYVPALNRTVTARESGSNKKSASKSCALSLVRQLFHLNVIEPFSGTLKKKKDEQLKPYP
attribute-measured: Kd (µM)
One number for each entry, in µM.

The value of Kd measured for the binder R2H1 55mer (FAM) (structured_RNA) RNA: GCUUUAGAGAUCGUUUCGAAUCACAUUGAUAAUCGUUCGAAACGUUCUCCGAAGC turned out to be 6.55
